- MEASUREMENT TARGET: Transcription intermediary factor 1-alpha (Homo sapiens, UniProt O15164)
- Sequence (O15164 whole entry, the tested form may be a part): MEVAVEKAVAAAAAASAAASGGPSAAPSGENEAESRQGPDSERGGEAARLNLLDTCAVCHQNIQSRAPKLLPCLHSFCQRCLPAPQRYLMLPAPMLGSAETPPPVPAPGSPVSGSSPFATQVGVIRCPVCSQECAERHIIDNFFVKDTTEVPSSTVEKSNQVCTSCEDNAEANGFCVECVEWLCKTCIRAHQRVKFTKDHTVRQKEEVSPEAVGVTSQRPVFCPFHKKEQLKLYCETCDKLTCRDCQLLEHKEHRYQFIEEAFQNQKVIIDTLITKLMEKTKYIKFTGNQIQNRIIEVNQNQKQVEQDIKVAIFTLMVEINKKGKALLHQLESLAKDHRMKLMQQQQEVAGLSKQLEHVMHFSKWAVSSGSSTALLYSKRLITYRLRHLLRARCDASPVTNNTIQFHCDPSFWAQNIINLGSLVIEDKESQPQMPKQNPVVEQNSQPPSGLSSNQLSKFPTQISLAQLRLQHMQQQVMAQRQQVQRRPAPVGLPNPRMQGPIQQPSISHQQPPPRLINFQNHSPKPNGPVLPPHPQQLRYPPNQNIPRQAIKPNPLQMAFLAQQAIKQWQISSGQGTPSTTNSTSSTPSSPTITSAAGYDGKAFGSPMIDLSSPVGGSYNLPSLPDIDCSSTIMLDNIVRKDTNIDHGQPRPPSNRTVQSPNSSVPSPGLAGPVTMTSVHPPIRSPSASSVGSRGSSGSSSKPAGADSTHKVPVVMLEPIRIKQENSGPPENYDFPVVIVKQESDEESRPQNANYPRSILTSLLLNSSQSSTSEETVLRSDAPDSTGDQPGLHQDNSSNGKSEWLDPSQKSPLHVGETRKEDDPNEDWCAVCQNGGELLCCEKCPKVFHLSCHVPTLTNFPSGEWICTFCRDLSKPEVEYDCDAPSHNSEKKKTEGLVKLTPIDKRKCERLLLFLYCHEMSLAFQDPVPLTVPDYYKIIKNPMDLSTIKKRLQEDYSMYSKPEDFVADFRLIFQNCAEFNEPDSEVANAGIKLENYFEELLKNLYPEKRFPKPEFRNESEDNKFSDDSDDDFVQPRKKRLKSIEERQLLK
- ASSAY TEXT: Inhibition of recombinant human His-tagged TRIM24-PHD/bromodomain expressed in Escherichia coli strains BL21 (DE3) cells using biotinylated H3K23ac (1 to 33 residues) peptide after 1 hr by AlphaScreen assay
OUTCOME MEASURE: IC50 (nM)

Previously resolved entries follow.
COMPOUND: CCCOc1cc(OCCCN)cc(Oc2cc3c(cc2NS(=O)(=O)c2ccc(OC)c(OC)c2)n(C)c(=O)n3C)c1
IC50 (nM): 13
--
COMPOUND: CC(C)COc1ccc(S(=O)(=O)Nc2ccc3c(c2)CCC(=O)N3C)cc1
IC50 (nM): 3700
--
COMPOUND: COc1ccc(Oc2cc3c(cc2NS(=O)(=O)c2ccccc2)n(C)c(=O)n3C)cc1
IC50 (nM): 1500
--
COMPOUND: CCCOc1cc(OCCCCCCNC(=O)OC(C)(C)C)cc(Oc2cc3c(cc2NS(=O)(=O)c2cn(C)cn2)n(C)c(=O)n3C)c1
IC50 (nM): 160
--
COMPOUND: CSc1ccc(S(=O)(=O)Nc2ccc3c(c2)CC(=O)N3C)cc1
IC50 (nM): 17000
--
COMPOUND: Cc1nc(S(=O)(=O)Nc2cc3c(cc2Oc2cccc(OCC(C)C)c2)n(C)c(=O)n3C)cn1C
IC50 (nM): 57
--
COMPOUND: Cn1c(=O)n(C)c2cc(NS(=O)(=O)c3ccc(C4CCCCC4)cc3)ccc21
IC50 (nM): 1700
--
COMPOUND: CCCOc1cc(OCCCCCCN)cc(Oc2cc3c(cc2NS(=O)(=O)c2cn(C)cn2)n(C)c(=O)n3C)c1
IC50 (nM): 10
--
COMPOUND: Cn1cnc(S(=O)(=O)Nc2cc3c(cc2Oc2cccc(OCC4CCOC4)c2)n(C)c(=O)n3C)c1 (stereo not drawn)
IC50 (nM): 100
--
COMPOUND: Cc1nc(S(=O)(=O)Nc2cc3c(cc2Oc2cccc(OCc4ccccc4)c2)n(C)c(=O)n3C)cn1C
IC50 (nM): 270

(P) Cn1cnc(S(=O)(=O)Nc2cc3c(cc2Oc2ccc(OCc4ccccc4)cc2)n(C)c(=O)n3C)c1
(Q) CCCOc1cc(OCCCCN)cc(Oc2cc3c(cc2NS(=O)(=O)c2ccc(OC)c(OC)c2)n(C)c(=O)n3C)c1
(R) COCCCOc1cccc(Oc2cc3c(cc2NS(=O)(=O)c2cn(C)c(C)n2)n(C)c(=O)n3C)c1
Input: Sort entries by IC50 from minimum to maximum value. # list labels per requested ordering
Output: Q, R, P

(P) CSc1ccc(S(=O)(=O)Nc2ccc3c(c2)CCC(=O)N3C)cc1
(Q) COc1cc2c(cc1NS(=O)(=O)c1ccccc1)CCC(=O)N2C
(R) CCCOc1cc(OCCCCCN)cc(Oc2cc3c(cc2NS(=O)(=O)c2cn(C)cn2)n(C)c(=O)n3C)c1
(S) COc1ccc(S(=O)(=O)Nc2cc3c(cc2Oc2cccc(OCCCCN(C)C)c2)n(C)c(=O)n3C)cc1OC
Input: Sort entries by IC50 from minimum to maximum value. # list labels per requested ordering
Output: R, S, P, Q
